// provenance: ChEMBL document CHEMBL1201862

- Test system: IGROV-1
- TEST: NCI tumour cell line growth inhibition, 48 h
Calls of active or inactive are those of the source. Cut-off read from the data, not from the text of the source: active = GI50 up to about 1.1 µM and inactive = higher.
Reported GI50 by item:

Please fill in: GI50 reported for `CCOC(=O)N/N=C(/N)Cc1ccc(Cl)cc1` = > 100 µM (inactive)

Further cases:
Please fill in: GI50 reported for `COc1ccc(O)c2c1C(=O)CCCC2=O` = > 100 µM (inactive)

====

Reported GI50 by item:
- Test system: RPMI-8226
- TEST: NCI tumour cell line growth inhibition, 48 h
The source made the active and inactive calls. Rule as the data show it: active = GI50 up to about 1.1 µM and inactive = higher.

Solved entries:
Field GI50 (system: RPMI-8226) for entry `CC1=N/C(=C\c2ccc([N+](=O)[O-])cc2)C(=O)O1` = > 100 µM (inactive)

Field GI50 (system: RPMI-8226) for entry `CC(C)(CCCCC(C)(C)C1NC(=O)N1)C1NC(=O)N1` = > 10 µM (inactive)

Field GI50 (system: RPMI-8226) for entry Clc1ccc(C2SCc3nc4ccccc4n32)c(Cl)c1 (configuration not stated) = 6.92 µM (inactive)

Further cases:
Field GI50 (system: RPMI-8226) for entry `Cc1ccc(N(C)S(=O)(=O)c2ccccc2[N+](=O)[O-])cc1` = 33.9 µM (inactive)

Field GI50 (system: RPMI-8226) for entry `CN(C)CCCn1c(Cc2ccc(Cl)cc2)nc2cc(C(F)(F)F)ccc21` = 40.8 µM (inactive)

Field GI50 (system: RPMI-8226) for entry `O=C(O)c1ccccc1C(=O)NCC1S(=O)(=O)OCCOS1(=O)=O` = > 100 µM (inactive)

Field GI50 (system: RPMI-8226) for entry `O=c1c(C(c2ccc(/C=C/c3ccccc3)cc2)c2c(O)oc3cc(O)ccc3c2=O)c(O)oc2cc(O)ccc12` = 39.6 µM (inactive)

Field GI50 (system: RPMI-8226) for entry `CCOC(=O)/C=C(\C(=O)OCC)n1cnc2c(N)ncnc21` = 2.02 µM (inactive)

Field GI50 (system: RPMI-8226) for entry `COc1cc2c(cc1OC)C1Cc3cc(OC)c(OC)cc3C(C2)O1` = 35.2 µM (inactive)

Field GI50 (system: RPMI-8226) for entry `O=C(O)c1ccc(N/C(=C(/C(Cl)=C(Cl)Cl)[N+](=O)[O-])n2nnc3ccccc32)cc1` = > 100 µM (inactive)

Field GI50 (system: RPMI-8226) for entry `O=c1c(Sc2c(O)c3ccccc3c3ccccc3c2=O)c(O)c2ccccc2c2ccccc12` = 19.8 µM (inactive)

Field GI50 (system: RPMI-8226) for entry `COCN/C(N)=N/C#N` = > 100 µM (inactive)

Field GI50 (system: RPMI-8226) for entry n1onc2c1NC1Nc3nonc3NC1N2 (configuration not stated) = > 100 µM (inactive)

Field GI50 (system: RPMI-8226) for entry COC(=O)C1=C(C(=O)OC)C2(CCCCCC2=O)OC1=O (configuration not stated) = > 100 µM (inactive)

Field GI50 (system: RPMI-8226) for entry `CC(=O)Nc1sc(Br)cc1S(=O)(=O)c1ccc(Cl)cc1` = 23.2 µM (inactive)
